Cited source for all entries: patent US20140314667A1

- TEST_SYSTEM: T1, EGFRvIII, full length, expressed on cells (human, UniProt P00533 25-1210)
- T1 construct: whole, on cells; the deletion has to be applied (the numbers count on the mature protein); also called native EGFRvIII; NR6 M cells
- PROCEDURE_SUMMARY: FACS on NR6 M cells, antibody at 0.25 ug/ml, no glutathione
MEASUREMENT_LABEL: FACS Geometric mean, without glutathione 37 C (geometric mean)

1. antibody 095 (antibody, IgG1, V domains shown, Recombinant IgG1 kappa; also called sc95; SC95) VH: QVQLQESGPFLVKPSQTLSLTCTVSGGSISSGGYYWSWIRQHPGKGLEWIGFIYYRGNTYYNPSLKSRVTISVDTSKNQFSLKLSSVTAADTAVYYCARDGYCSRTGCYGGWFDPWGQGTLVTVSP VL: DIVMTQTPLSSPVTLGQPASISCRSSQSLIHTDGNIYLSWLQQRPGQPPRLLIYKISNRFSGVPDRFSGSGAGTDFTLKISRVEAEDVGVYYCMQGTQFPITFGQGTRLEIK    22.6
2. SC-EGFRvIII-XG2-150 (antibody, IgG1, V domains shown, kappa light chain; also called sc150; SC150) VH: QVQLQQSGPGLVKPSQTLSLTCAISGDSVSSYSSAWNWIRQSPSRGLEWLGRAYHRSRWYYEYAVSVKSRINITPDTSKNQFSLQLNSVTPEDTAVYYCARGSRFDYWGQGTLVTVSS VL: DIVMTQTPLSSPVTLGQPASISCRSSQSLVHRDGNTYLSWLQQRPGQPPRLLIYKISNRFSGVPDRFSGSGAGTDFTLKISRVEAEDVGIYFCMHTTQFPWTFGQGTRVEIK    20.3
3. SC-EGFRvIII-XG1-139 (antibody, IgG1, V domains shown, Recombinant IgG1 kappa; also called sc139; SC139) VH: EVQVLESGGGLVQPGGSLRLSCAASGFTFSSYAMSWVRQAPGKGLEWVSAISGSGGSTNYADSVKGRFTISRDNSKNTLYLQMNSLRAEDTAVYYCAGSSGWSEYWGQGTLVTVSS VL: DIQMTQSPSSLSASVGDRVTITCRASQGIRNNLAWYQQKPGKAPKRLIYAASNLQSGVPSRFTGSGSGTEFTLIVSSLQPEDFATYYCLQHHSYPLTSGGGTKVEIK    22.6
4. SC-EGFRvIII-XG2-170 (antibody, IgG1, V domains shown, kappa light chain; also called sc170; SC170) VH: QVQLQQSGPGLVKPSQTLSLTCAISGDSVSSNNAAWNWIRQSPARGLEWLGRTYYRSKWYNDYVVSVKSRITINPDTSKNQFSLQLNSVTPEDTAVYYCVRATAFDYWGQGTLVTVSS VL: AIVLTQTPLSSPVTLGQPASISCRSSQSLVHRDGNTYLSWLQQRPGQPPRLLIYKISNRFSGVPDRFSGSGAGTDFTLKISRVEPDDVGVYYCMHTTQLPWTFGQGTKVEIK    20
5. SC-EGFRvIII-XG1-250 (antibody, IgG1, V domains shown, Recombinant IgG1 kappa; also called sc250; SC250) VH: EGQLLESGGGWVQPGESLRLSCAASGFTFSSYAMSWVRQAPGKGLEWVSAISGSGGSTNYADSVKGRFTISRDNSKNTLYLQVNSLRVEDTAVYYCAGSSGWSEYWGQGTLVTVSS VL: DIQMTQSPSSLSASVGDSVTITCRTSQGIRKNLGWYQQKPGKAPKRLIYAASSLQSGVPSRFSGSGSGTEFTLTISRLQPEDFATYYCLQHHSYPLTFGGGTRVEIR    24.1
6. SC-EGFRvIII-XG1-211 (antibody, IgG1, V domains shown, Recombinant IgG1 kappa; also called sc211; SC211) VH: QVQLVESGGGVVQPGRSLRLSCVASGFTLSSYGMHWVRQAPGKGLEWVAVTSYDGSKKDYADSAKGRFTISRDNSKNTLYLQMNSLRAEDTAVYYCVSEGYCSSSSCYKYYYYGMDVWGQGTTVTVSS VL: DIVMTQSPLSLPVTPGEPASISCRSSQSLLYRNGNNYLDWYLQRPGQSPQLLIYLGSNRASGVPDRFSGSGSGTDFTLKISRVEAEDVGVYYCMQALQTPRTFGQGTKVEIK    20.8
